Values compiled from ChEMBL document CHEMBL4834404.

I'd be grateful if you could share measured solubility kinetic for these entries.
assay.protocol: Solubility of compound by CLND assay
Type: physicochemical
Kindly answer with a numeric value in µg/mL, unit omitted.

Q: Name the recorded solubility kinetic for Cc1cc(-c2ccccc2OCc2ccccc2)on1 .
Result: 1

Q: solubility kinetic for CCNC(=O)c1ccc(O[C@@H](C)c2ccccc2)c(-c2cn(C)nn2)c1 ?
Result: 105

Q: Given the entry CCNC(=O)c1ccc(OCc2cccnc2)c(-c2cn(C)nn2)c1 , report its measured solubility kinetic.
Result: 103

Q: Need solubility kinetic of C[C@H](Oc1ccc(C(N)=O)cc1-c1cn(C)nn1)c1ccccn1 , thanks.
Result: 131

Q: Using the record for C[C@H](Oc1ccc(C(=O)NC2CC2)cc1-c1cn(C)nn1)c1ccccn1 , report its solubility kinetic.
Result: 145

Q: # input compound: CCNC(=O)c1ccc(OCc2ccccc2)c(-c2cn(C)nn2)c1 ; wanted: its solubility kinetic
Result: 46

Q: Dear colleague, I am looking for the recorded solubility kinetic of the following compound: CCNC(=O)c1ccc(OCc2ccccn2)c(-c2cn(C)nn2)c1
Result: 114

Q: # input compound: Cn1cc(-c2ccccc2OCc2ccccc2)nn1 ; wanted: its solubility kinetic
Result: 87

Q: Give the measured solubility kinetic of CCNC(=O)c1cc(Cc2ccc(OC)cc2)nc(-c2cn(C)nn2)c1 .
Result: 53
